As shown below, each of these variants has a reported self-cleavage value.
B1: CPEB3 Ribozyme (parent)
chain: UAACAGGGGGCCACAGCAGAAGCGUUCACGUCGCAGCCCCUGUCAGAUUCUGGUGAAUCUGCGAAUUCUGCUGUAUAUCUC

# Variants of: B1
# PROCEDURE TEXT: self-cleavage, relative activity (ratio to wild type); higher = more cleavage; in vitro, sequencing
Number, no unit, nothing else.

// below: answered variants
MUTANT NAME	ASSAY ENDPOINT	OBSERVED VALUE
U26A U58C	self-cleavage	0.39
U54A G55A	self-cleavage	0.8
G53U U72C	self-cleavage	1.2

Please fill in: self-cleavage reported for U26C C39A = 0.33

Please fill in: self-cleavage reported for U41A G70U = 0.12

Please fill in: self-cleavage reported for G61A C79A = 1.16

Please fill in: self-cleavage reported for G8A U76A = 0.49

Please fill in: self-cleavage reported for G6A G10C = 0.23

Please fill in: self-cleavage reported for C23U G70A = 0.17

Please fill in: self-cleavage reported for G19C G30C = 0.25
